Could you please report measured self-cleavage for the items listed next?
B1: CPEB3 Ribozyme (parent)
chain: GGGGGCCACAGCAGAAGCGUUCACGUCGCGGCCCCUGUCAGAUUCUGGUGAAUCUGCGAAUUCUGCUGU

variants of: B1; assay: self-cleavage, relative activity (ratio to wild type); higher = more cleavage; co-transcriptional

# input // Input: C57A G65U . Output its self-cleavage only.
# output 0.399

# input Quick one: give measured self-cleavage for C27G U38G
# output 0.255

# input Return value of self-cleavage for input C29G A52C , no commentary.
# output 0.467

# input Supply measured self-cleavage of A8U G19U in your reply.
# output 0.483

# input Answer with the recorded self-cleavage for the variant listed here: C6U C18G
# output 0.0786

# input Supply self-cleavage value. Item: U26C U43A
# output 0.865

# input Tell me its self-cleavage given C7A C29A as the entry.
# output 0.0674

# input Check the records and state self-cleavage for G5A G30A
# output 0.156

# input Return value of self-cleavage for input C22U C54G , no commentary.
# output 0.285

# input Input C9A G31C , output reported self-cleavage.
# output 0.291

# input Give the value of self-cleavage reported for the following: G5A C39U
# output 0.653

# input Please give the documented self-cleavage of U20A C63U
# output 0.16

These measurements were taken from the RNAGym collection of RNA variant scans (doi:10.7554/elife.80360).
